This collection of values is drawn from ChEMBL document CHEMBL1138744.

# Tested on: C6
# test protocol: Cytotoxic activity of compound towards […] cell line after 48 hr of administration
# Format: functional, cell-based
# condition notes: Rattus norvegicus, C6, 48 h
pIC50: −log10 of the molar value.

{"chem smiles": "CC(C)(C)C#Cc1nc(N(CCO)CCO)nc(N(CCO)CCO)n1", "sign qualifier": "=", "pIC50": 2.47}
{"chem smiles": "CC[C@H](C)Cc1nc(N2CCOCC2)nc(N2CCOCC2)n1", "sign qualifier": "=", "pIC50": 3.24}
{"chem smiles": "CC(C)c1nc(N2CCOCC2)nc(N2CCOCC2)n1", "sign qualifier": "=", "pIC50": 3.85}
{"chem smiles": "C1CN(c2nc(N3CCOCC3)nc(N3CCOCC3)n2)CCO1", "sign qualifier": "=", "pIC50": 3.82}
{"chem smiles": "COc1ccc(Nc2nc(C#CC(C)(C)C)nc(Nc3ccc(OC)cc3)n2)cc1", "sign qualifier": "<", "pIC50": 2.00}
{"chem smiles": "COc1ccc(Oc2nc(C#CC(C)(C)O)nc(Oc3ccc(OC)cc3)n2)cc1", "sign qualifier": "<", "pIC50": 2.00}
{"chem smiles": "CC(C)(C)C#Cc1nc(N2CCOCC2)nc(N2CCOCC2)n1", "sign qualifier": "=", "pIC50": 2.18}
{"chem smiles": "COc1nc(C#CC(C)(C)O)nc(OC)n1", "sign qualifier": "=", "pIC50": 4.79}
{"chem smiles": "COc1nc(C#CC(C)(C)C)nc(OC)n1", "sign qualifier": "=", "pIC50": 4.78}

----------
# System: HL-60
# test protocol: Cytotoxic activity of compound towards human HL60 cell line after 48 hr of administration
# Type: functional, cell-based
# condition notes: HL-60, 48 h
pIC50: −log10 of the molar value.
Answer criterion not met if pIC50 is under 4, and criterion met if it is 4 or more.

{"chem smiles": "COc1nc(C#CC(C)(C)C)nc(OC)n1", "class": "criterion met"}
{"chem smiles": "CC(C)(C)C#Cc1nc(N2CCOCC2)nc(N2CCOCC2)n1", "class": "criterion not met"}
{"chem smiles": "COc1nc(OC)nc(OC)n1", "class": "criterion not met"}
{"chem smiles": "COc1ccc(Nc2nc(C#CC(C)(C)C)nc(Nc3ccc(OC)cc3)n2)cc1", "class": "criterion not met"}
{"chem smiles": "CC[C@H](C)Cc1nc(N2CCOCC2)nc(N2CCOCC2)n1", "class": "criterion not met"}

----------
Some compounds, each annotated with its measured IC50.
# Tested on: HL-60
# test protocol: Cytotoxic activity of compound towards human HL60 cell line after 48 hr of administration
# Format: functional, cell-based
# condition notes: HL-60, 48 h

{"chem smiles": "COc1nc(C#CC(C)(C)O)nc(OC)n1", "IC50": "15.8 µM"}
{"chem smiles": "COc1ccc(Oc2nc(C#CC(C)(C)O)nc(Oc3ccc(OC)cc3)n2)cc1", "IC50": "17 µM"}
{"chem smiles": "COc1ccc(Oc2nc(Oc3ccc(OC)cc3)nc(Oc3ccc(OC)cc3)n2)cc1", "IC50": "70.8 µM"}
{"chem smiles": "C1CN(c2nc(N3CCOCC3)nc(N3CCOCC3)n2)CCO1", "IC50": "129 µM"}

----------
# System: HCT-116
# test protocol: Cytotoxic activity of compound towards human cancer cell line HCT116 (colon cancer)
# Format: functional, cell-based

{"chem smiles": "COc1nc(C#CC2CCCCC2)nc(OC)n1", "IC50": "400 nM"}

----------
# System: HOP-62
# test protocol: Cytotoxic activity of compound towards human cancer cell line HOP-62 (lung cancer)
# Type: functional, cell-based

{"molecule": "CCC(O)C#Cc1nc(OC)nc(OC)n1 (stereo unspecified)", "tested on": "HOP-62", "IC50 (µM)": 4.9}
